Consider the following log10 IC50 values measured on Ac-AChBP (Aplysia californica, UniProt Q8WSF8).
Sequence (Q8WSF8 18-236 limits assumed): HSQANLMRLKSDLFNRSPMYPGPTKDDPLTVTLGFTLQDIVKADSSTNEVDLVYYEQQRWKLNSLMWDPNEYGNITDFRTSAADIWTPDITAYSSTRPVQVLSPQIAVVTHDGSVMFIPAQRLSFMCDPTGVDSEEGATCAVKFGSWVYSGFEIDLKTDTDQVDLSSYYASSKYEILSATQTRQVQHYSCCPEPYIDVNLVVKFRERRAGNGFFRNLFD
Bridge positions count the residues as written; N and C are the ends. Peptide text beside a SMILES is read from it.
Reminder: these figures are log10 of reported IC50, in nM before transformation.

# returns recorded log10 IC50 (system: Ac-AChBP (Aplysia californica, UniProt Q8WSF8)) for CC[C@H](C)[C@@H]1NC(=O)[C@H](CC(N)=O)NC(=O)[C@@H]2CCCN2C(=O)[C@H](CC(N)=O)NC(=O)[C@H](CC(N)=O)NC(=O)[C@H](C(C)C)NC(=O)[C@H](CCSC)NC(=O)[C@@H]2CSSC[C@H](NC(=O)CNC(=O)[C@@H](N)CO)C(=O)N[C@@H](CSSC[C@@H](C(N)=O)NC1=O)C(=O)N[C@@H](CO)C(=O)N[C@@H](CC(N)=O)C(=O)N1CCC[C@H]1C(=O)N[C@@H](C)C(=O)N2 [R10M-LsIA] (H-SGCCSNPACMVNNPNIC-NH2; disulfide 3-9, 4-17)
0.27

// map CC[C@H](C)[C@@H]1NC(=O)[C@H](CC(N)=O)NC(=O)[C@@H]2CCCN2C(=O)[C@H](CC(N)=O)NC(=O)[C@H](CC(N)=O)NC(=O)[C@H](C(C)C)NC(=O)[C@H](CC(=O)O)NC(=O)[C@@H]2CSSC[C@H](NC(=O)CNC(=O)[C@@H](N)CO)C(=O)N[C@@H](CSSC[C@@H](C(N)=O)NC1=O)C(=O)N[C@@H](CO)C(=O)N[C@@H](CC(N)=O)C(=O)N1CCC[C@H]1C(=O)N[C@@H](C)C(=O)N2 [R10D-LsIA] (H-SGCCSNPACDVNNPNIC-NH2; disulfide 3-9, 4-17) to recorded log10 IC50 (system: Ac-AChBP (Aplysia californica, UniProt Q8WSF8))
3.92

For Ac-AChBP (Aplysia californica, UniProt Q8WSF8), provide log10 IC50 of CC[C@H](C)[C@@H]1NC(=O)[C@H](CC(N)=O)NC(=O)[C@@H]2CCCN2C(=O)[C@H](CC(N)=O)NC(=O)[C@H](CC(N)=O)NC(=O)[C@H](C(C)C)NC(=O)[C@H](Cc2ccccc2)NC(=O)[C@@H]2CSSC[C@H](NC(=O)CNC(=O)[C@@H](N)CO)C(=O)N[C@@H](CSSC[C@@H](C(N)=O)NC1=O)C(=O)N[C@@H](CO)C(=O)N[C@@H](CC(N)=O)C(=O)N1CCC[C@H]1C(=O)N[C@@H](C)C(=O)N2 [R10F-LsIA] (H-SGCCSNPACFVNNPNIC-NH2; disulfide 3-9, 4-17) please.
0.34

log10 IC50 of CC[C@H](C)[C@@H]1NC(=O)[C@H](CC(N)=O)NC(=O)[C@@H]2CCCN2C(=O)[C@H](CC(N)=O)NC(=O)[C@H](CC(C)C)NC(=O)[C@H](C(C)C)NC(=O)[C@H](CCCNC(=N)N)NC(=O)[C@@H]2CSSC[C@H](NC(=O)CNC(=O)[C@@H](N)CO)C(=O)N[C@@H](CSSC[C@@H](C(N)=O)NC1=O)C(=O)N[C@@H](CO)C(=O)N[C@@H](CC(N)=O)C(=O)N1CCC[C@H]1C(=O)N[C@@H](C)C(=O)N2 [N12L-LsIA] (H-SGCCSNPACRVLNPNIC-NH2; disulfide 3-9, 4-17) on Ac-AChBP (Aplysia californica, UniProt Q8WSF8)?
1.79

What log10 IC50 appears in the records for this compound with Ac-AChBP (Aplysia californica, UniProt Q8WSF8)? CC[C@H](C)[C@@H]1NC(=O)[C@H](CC(N)=O)NC(=O)[C@@H]2CCCN2C(=O)[C@H](CC(N)=O)NC(=O)[C@H](CCC(N)=O)NC(=O)[C@H](C(C)C)NC(=O)[C@H](CCCNC(=N)N)NC(=O)[C@@H]2CSSC[C@H](NC(=O)CNC(=O)[C@@H](N)CO)C(=O)N[C@@H](CSSC[C@@H](C(N)=O)NC1=O)C(=O)N[C@@H](CO)C(=O)N[C@@H](CC(N)=O)C(=O)N1CCC[C@H]1C(=O)N[C@@H](C)C(=O)N2 [N12Q-LsIA] (H-SGCCSNPACRVQNPNIC-NH2; disulfide 3-9, 4-17)
1.74

Next, consider the following compound.
Find log10 IC50 (Ac-AChBP (Aplysia californica, UniProt Q8WSF8)) for the entry CC[C@H](C)[C@@H]1NC(=O)[C@H](CC(N)=O)NC(=O)[C@@H]2CCCN2C(=O)[C@H](CC(N)=O)NC(=O)[C@H](CC(=O)O)NC(=O)[C@H](C(C)C)NC(=O)[C@H](CCCNC(=N)N)NC(=O)[C@@H]2CSSC[C@H](NC(=O)CNC(=O)[C@@H](N)CO)C(=O)N[C@@H](CSSC[C@@H](C(N)=O)NC1=O)C(=O)N[C@@H](CO)C(=O)N[C@@H](CC(N)=O)C(=O)N1CCC[C@H]1C(=O)N[C@@H](C)C(=O)N2 [N12D-LsIA] (H-SGCCSNPACRVDNPNIC-NH2; disulfide 3-9, 4-17)
3.74
